system_name: E. coli DdlB enzyme (D-alanine:D-alanine ligase) (Escherichia coli)
Construct: made in house; host or cells: E. coli
protocol_text: biochemical
measurement_setup: read-out: DdlB RA

{"columns": ["compound", "remaining activity at 2500 µM / %"],
 "data": [
  ["Cc1ccc(N)c(O)c1 [FLD023]", 100],
  ["Oc1ccccc1 [FLD105]", 95],
  ["N#Cc1ccc(CN)cc1 [FLD152]", 97],
  ["Nc1ccc(F)c(Cl)c1 [FLD050]", 98]
]}

====

system_name: E. coli DdlB enzyme (D-alanine:D-alanine ligase) (Escherichia coli)
Construct: made in house; host or cells: E. coli
protocol_text: biochemical
measurement_setup: residual activity of DdlB; fragment library screening; tested concentration 2.5 mM; read-out: DdlB RA

{"columns": ["compound", "system_name", "remaining activity at 2500 µM"],
 "data": [
  ["Clc1cc(Cl)ncn1 [FLD117]", "E. coli DdlB enzyme (D-alanine:D-alanine ligase) (Escherichia coli)", "97%"],
  ["CCOC(=O)Cc1ccccn1 [FLD164]", "E. coli DdlB enzyme (D-alanine:D-alanine ligase) (Escherichia coli)", "97%"],
  ["Nc1ccc2ccccc2c1 [FLD074]", "E. coli DdlB enzyme (D-alanine:D-alanine ligase) (Escherichia coli)", "89%"],
  ["O=C1CCC(C(=O)O)N1 (stereo not drawn) [FLD028]", "E. coli DdlB enzyme (D-alanine:D-alanine ligase) (Escherichia coli)", "100%"],
  ["Brc1ccccn1 [FLD169]", "E. coli DdlB enzyme (D-alanine:D-alanine ligase) (Escherichia coli)", "100%"],
  ["Cc1nnc(N)s1 [FLD150]", "E. coli DdlB enzyme (D-alanine:D-alanine ligase) (Escherichia coli)", "95%"]
]}

====

remaining activity at 2600 µM listing for selected compounds.
system_name: E. coli DdlB enzyme (D-alanine:D-alanine ligase) (Escherichia coli)
Construct: made in house; host or cells: E. coli
protocol_text: biochemical
measurement_setup: tested concentration 2.6 mM; read-out: DdlB RA
measurement_kind: remaining activity at 2600 µM

{"columns": ["compound", "system_name", "measurement_kind", "experimental_result"],
 "data": [
  ["CCS(=O)(=O)Nc1cc(C(C)(C)C)on1 [Compound Y206-0720]", "E. coli DdlB enzyme (D-alanine:D-alanine ligase) (Escherichia coli)", "remaining activity at 2600 µM", "91%"],
  ["O=c1c(O)c(N2CCCCCC2)c1=O [Compound G317-0465]", "E. coli DdlB enzyme (D-alanine:D-alanine ligase) (Escherichia coli)", "remaining activity at 2600 µM", "92%"],
  ["O=S(=O)(O)CCN1CCOCC1 [Compound 0083-0027]", "E. coli DdlB enzyme (D-alanine:D-alanine ligase) (Escherichia coli)", "remaining activity at 2600 µM", "91%"],
  ["O=c1c(O)c(NCc2ccco2)c1=O [Compound G317-0464]", "E. coli DdlB enzyme (D-alanine:D-alanine ligase) (Escherichia coli)", "remaining activity at 2600 µM", "89%"],
  ["O=C(Cc1ccccc1)NCC1CCOCC1 [Compound P970-0162]", "E. coli DdlB enzyme (D-alanine:D-alanine ligase) (Escherichia coli)", "remaining activity at 2600 µM", "92%"]
]}

====

system_name: E. coli DdlB enzyme (D-alanine:D-alanine ligase) (Escherichia coli)
Construct: made in house; host or cells: E. coli
protocol_text: biochemical
measurement_setup: residual activity of DdlB; fragment library screening; tested concentration 2.5 mM; read-out: DdlB RA
remaining activity at 2500 µM listing for selected compounds.

{"columns": ["compound_smiles", "system_name", "unit_abbrev", "remaining activity at 2500 µM"],
 "data": [
  ["O=C1CNC(=O)N1", "E. coli DdlB enzyme (D-alanine:D-alanine ligase) (Escherichia coli)", "%", 95],
  ["Cc1ccc(N)c(N)c1", "E. coli DdlB enzyme (D-alanine:D-alanine ligase) (Escherichia coli)", "%", 90],
  ["CNc1nnc(C(F)(F)F)s1", "E. coli DdlB enzyme (D-alanine:D-alanine ligase) (Escherichia coli)", "%", 94],
  ["Cc1ccc(C#N)c(O)n1", "E. coli DdlB enzyme (D-alanine:D-alanine ligase) (Escherichia coli)", "%", 97],
  ["Cc1cc(N)ccn1", "E. coli DdlB enzyme (D-alanine:D-alanine ligase) (Escherichia coli)", "%", 100],
  ["O=C(O)C(c1ccccc1)c1ccccc1", "E. coli DdlB enzyme (D-alanine:D-alanine ligase) (Escherichia coli)", "%", 100],
  ["O=C1CNCCN1", "E. coli DdlB enzyme (D-alanine:D-alanine ligase) (Escherichia coli)", "%", 100],
  ["O=C(O)c1c[nH]cn1", "E. coli DdlB enzyme (D-alanine:D-alanine ligase) (Escherichia coli)", "%", 100],
  ["O=C(c1ccc(O)cc1)c1ccc(O)cc1", "E. coli DdlB enzyme (D-alanine:D-alanine ligase) (Escherichia coli)", "%", 97],
  ["OCc1cccc(Oc2ccccc2)c1", "E. coli DdlB enzyme (D-alanine:D-alanine ligase) (Escherichia coli)", "%", 100],
  ["O=C(O)c1ccccc1Br", "E. coli DdlB enzyme (D-alanine:D-alanine ligase) (Escherichia coli)", "%", 100],
  ["O=C(O)Cc1cccnc1", "E. coli DdlB enzyme (D-alanine:D-alanine ligase) (Escherichia coli)", "%", 98]
]}
